Hello, the source for this data is ChEMBL document CHEMBL1201862, in case you need it.

System: ACHN
Assay: NCI tumour cell line growth inhibition, 48 h
Active and inactive are the calls of the source. No stated cut-off is given here; in the data, active = GI50 up to about 1.1 µM and inactive = higher.
property: GI50

// below: answered compounds
compound	property	measurement
Cc1ccc(-c2c(C#N)c(S)n(NS(=O)(=O)c3ccccc3)c(=O)c2C#N)cc1	GI50	28.1 µM (inactive)
C=C[C@@H]1OC(=O)O[C@H]1CO	GI50	> 100 µM (inactive)
C/C(=N/NC(=S)N1CCCCC1)c1cccc(/C(C)=N\NC(=S)N2CCCCC2)n1	GI50	1.46 µM (inactive)
CCc1cccc(C(C)C)c1NC(=O)C(=O)C(Cc1nc2ccccc2nc1O)C(=O)OC (stereo unspecified)	GI50	> 100 µM (inactive)
O=C1CC(c2ccccc2)C2(C(=O)NC(=S)NC2=O)C(c2ccccc2)C1 (stereo unspecified)	GI50	> 75 µM (inactive)

Exercise: Entry `Cc1ccc2cccc(OC(=O)c3cc4c(cc3Cl)Sc3nccn3S4(=O)=O)c2n1` : reported GI50 = ?
Solution: 10.5 µM (inactive)

Exercise: So what's the measured GI50 for this one? O=c1[nH]c(=O)n(C2CC(O)C(CO)O2)c2nc3ccc4ccccc4c3nc12 (stereo unspecified)
Solution: > 100 µM (inactive)

Exercise: Which GI50 is listed for COc1cc(C2C(Cl)C(=O)N2NC(=O)c2ccc(NC(C)=O)cc2)cc(OC)c1OC (stereo unspecified) ?
Solution: > 10 µM (inactive)

Exercise: Looking for the measured GI50 of Cc1ccc(C)c(NC(=O)CC2C(=O)Nc3ccccc3S2(=O)=O)c1 (stereo unspecified) , can you help?
Solution: 48.2 µM (inactive)
